Every entry's value here was drawn from patent US20240123070A1.

We begin with a simple list: items and their reported TCR Mut RLU/WT RLU.
Study Target: KRAS G13D antigen (G13D-RT6, SEQ ID NO: 20) loaded on Lovo-DPA0301:DPB0501 cells (human)
Experiment Notes: cell-based or functional assay
Could you give me the number in ratio? Just the number is fine.

INSERT INTO assay_data (binder, numeric_readout) VALUES
  ('B8.2.4 TCR mutant β95Q-C (TCR, V domains shown) V domain 1: AQKITQTQPGMFVQEKEAVTLDCTYDTSDPSYGLFWYKQPSSGEMIFLIYQGSYDQQNATEGRYSLNFQKARKSANLVISASQLGDSAMYFCAMRERTGTASKLTFGTGTRLQVTL V domain 2: DVKVTQSSRYLVKRTGEKVFLECVQDMDHENMFWYRQDPGLGLRLIYFSYDVKMKEKGDIPEGYSVSREKKERFSLILESASTNQTSMYLCASSCTVPPQHFGDGTRLSILE', 1.14);

Please turn your attention to the following entry.
Value lookup for TCR Mut RLU/WT RLU; key = B8.2.4 TCR mutant β97V-N (TCR, V domains shown) V domain 1: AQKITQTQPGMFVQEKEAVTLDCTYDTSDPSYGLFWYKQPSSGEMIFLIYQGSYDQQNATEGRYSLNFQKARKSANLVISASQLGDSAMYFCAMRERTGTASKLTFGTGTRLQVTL V domain 2: DVKVTQSSRYLVKRTGEKVFLECVQDMDHENMFWYRQDPGLGLRLIYFSYDVKMKEKGDIPEGYSVSREKKERFSLILESASTNQTSMYLCASSQTNPPQHFGDGTRLSILE
0.26
